Sourced from ChEMBL document CHEMBL1201862

# Test system: LOX IMVI
# Method Summary: NCI tumour cell line growth inhibition, 48 h
Active and inactive are the calls of the source. Cut-off read from the data, not from the text of the source: active = GI50 up to about 1.1 µM and inactive = higher.
Property Name: GI50

Molecule	Measured Target	GI50
O=C(Nc1nccs1)c1cc(C2=CC=CC([N+](=O)[O-])C=C2)nc(S)n1 (centres undefined)	LOX IMVI	> 100 µM (inactive)
CC(=O)OC[C@@]1(C)[C@@H]2[C@@H]3[C@@]4(CO[C@]3(C)C(=O)[C@@]3(O)C[C@H](C)[C@H](OC(C)=O)[C@@H]3[C@H]4OC(C)=O)[C@H](OC(=O)c3ccccc3)C[C@@H]21	LOX IMVI	> 100 µM (inactive)
O=[N+]([O-])c1ccc2c(c1)Sc1ccccc1N2CCCCCl	LOX IMVI	> 100 µM (inactive)
CC[C@H](C)[C@H](NC(=O)[C@@]1(O)[C@H](O)[C@]2(CC)C=CCN3CC[C@@]4(c5cc(Br)c(OC)cc5N(C)[C@@H]14)[C@@H]32)C(=O)OC	LOX IMVI	16.8 µM (inactive)

Ask | For "O=C1/C(=C/c2ccco2)N=C(c2ccccc2)N1c1cc2cc(Sc3ccccc3)ccc2[nH]1" , what is its reported GI50?
Reply | 12.3 µM (inactive)

Ask | For "O=C(CSc1nnc(Cc2ccccc2)o1)Nc1ccccc1" , what is its reported GI50?
Reply | > 100 µM (inactive)

Ask | For CC(C)(C)N1C(=O)c2ccccc2C1(O)C(F)(F)F (centres undefined) , what is its reported GI50?
Reply | > 100 µM (inactive)

Ask | For "CCOC(=O)c1nc2ccc(C(F)(F)F)cc2nc1Oc1cc(OC)cc(OC)c1" , what is its reported GI50?
Reply | > 100 µM (inactive)

Ask | For "O=C1N=C2SC=C(NC(=S)Nc3ccccc3)N2NC12c1ccccc1-c1ccccc12" , what is its reported GI50?
Reply | > 10 µM (inactive)

###

# System: K562
# Method Summary: NCI tumour cell line growth inhibition, 48 h
The source made the active and inactive calls. Cut-off read from the data, not from the text of the source: active = GI50 up to about 1.1 µM and inactive = higher.
Listed compounds paired with reported GI50

Reference set, count: 6
Compound	GI50
CCOP(=O)(OCC)OC1C=CC2CCC1C2 (stereo not given)	> 100 µM (inactive)
COC(=O)C(CCC1(C)OCCO1)C(C)=O (stereo not given)	> 100 µM (inactive)
COc1ccc2c3c1C(=O)CCCC3CO2 (stereo not given)	> 100 µM (inactive)
CN(C)c1ccc(/C=c2/sc3nc(=O)c(-c4ccccc4NC(=O)C(F)(F)F)nn3c2=O)cc1	> 100 µM (inactive)
C/N=C(\N)N/N=C(\C)c1ccc2oc3ccc(/C(C)=N/N/C(N)=N/C)cc3c2c1	2.15 µM (inactive)
CC[C@H](C)[C@H](NC(=O)[C@@]1(O)[C@H](O)[C@]2(CC)C=CCN3CC[C@@]4(c5cc(Br)c(OC)cc5N(C)[C@@H]14)[C@@H]32)C(=O)OC	67.1 µM (inactive)

Ask | For CC(C)CN1CC(C)C(=O)NC1=O (stereo not given) , what is its reported GI50?
Reply | > 100 µM (inactive)

Ask | For "Cc1ccccc1C(=N)c1ccccc1Cc1cccc2ccccc12" , what is its reported GI50?
Reply | 18.2 µM (inactive)

###

Listed compounds paired with reported GI50
# System: HCT-15

Reference set, count: 10
Compound	Measured Target	GI50
CN(CCO)c1nc(N)cc(=O)[nH]1	HCT-15	> 100 µM
O=c1ncccn1C1C=C(CO)C(O)C1O (stereo not given)	HCT-15	> 50 µM
O=C1Oc2cc3c(c4cccc1c24)OCN(c1ccccc1)C3	HCT-15	79.1 µM
CCOC(=O)NC(=O)c1cn(-c2ccc(CCOC(=O)CCCCCCCCC(=O)OCCc3ccc(-n4cc(C(=O)NC(=O)OCC)c(=O)[nH]c4=O)cc3)cc2)c(=O)[nH]c1=O	HCT-15	> 100 µM
O=C(Nc1c(O)[nH]c(=S)[nH]c1=O)c1ccccn1	HCT-15	> 100 µM
CN1C(=O)C(c2c[nH]c3ccccc23)N(C)C(=O)C1c1c[nH]c2ccccc12 (stereo not given)	HCT-15	> 100 µM
O=c1cc(-c2ccc(O)c(O)c2)oc2cc(O[C@H]3O[C@H](CO)[C@@H](O)[C@H](O)[C@H]3O)cc(O)c12	HCT-15	41.5 µM
[O-][S+](Nc1ccccc1)c1ccccc1Oc1ccccc1 (stereo not given)	HCT-15	27.7 µM
O=C(NC(CO)CO)c1ccc2cc(C(=O)N3CC(CCl)c4ccc([N+](=O)[O-])cc43)[nH]c2c1 (stereo not given)	HCT-15	> 100 µM
CCN(CC)c1ccc2cc(C(=O)Nc3ccc(C)cc3)c(=N)oc2c1	HCT-15	> 100 µM

Ask | # query: GI50 | item "CSc1c(C(=O)Nc2ccccc2)c(N)n(N)c(=O)c1C#N" | system: HCT-15
Reply | > 100 µM

###

# System: K562
# Method Summary: NCI tumour cell line growth inhibition, 48 h
Activity calls are given as the source filed them. No stated cut-off is given here; in the data, active = GI50 up to about 1.1 µM and inactive = higher.
Reply using exactly one outcome from active, inactive

Molecule	Assigned Class
CC(C)(C)OC1=C(OC(C)(C)C)C(O)(c2ccccc2)C1=O (configuration not stated)	inactive
CCOC(=O)C1=C(O)C(=O)c2c(OC)ccc(OC)c2C1=O	inactive
COc1ccc(C(=O)/C=C/c2ccc3c(c2)OCO3)c(OCc2ccccc2)c1	inactive
Fc1ccc(/N=C/C=C/Nc2ccc(F)cc2)cc1	active
CCOP12(OCC)NC(=O)OC1(C(F)(F)F)c1ccccc1O2 (configuration not stated)	inactive

Ask | How was "O=C(OC(=O)n1ccc2ccccc21)n1ccc2ccccc21" classified in this test?
Reply | inactive

Ask | How was C=CCSS/C=C/C[S+]([O-])CC=C (configuration not stated) classified in this test?
Reply | inactive

###

# Tested on: 786-0
# Method Summary: NCI tumour cell line growth inhibition, 48 h
Active and inactive are the calls of the source. Rule as the data show it: active = GI50 up to about 1.1 µM and inactive = higher.
Listed molecules paired with reported GI50

Molecule	Measured Target	Reported Measurement
CCOC(=O)NC(=O)c1cn(-c2ccc(CCOC(=O)CCCCCCCCC(=O)OCCc3ccc(-n4cc(C(=O)NC(=O)OCC)c(=O)[nH]c4=O)cc3)cc2)c(=O)[nH]c1=O	786-0	> 100 µM (inactive)
COc1cc(C(SCc2ccccc2)SCc2ccccc2)ccc1O	786-0	> 10 µM (inactive)
CC(C)CN1CC(C)C(=O)NC1=O (stereo not given)	786-0	> 100 µM (inactive)

Ask | For CC(SC(=O)Nc1ccc(/N=N/c2ccccc2)cc1)C(=O)O (stereo not given) , what is its reported GI50?
Reply | 79.8 µM (inactive)

Ask | For "CC(=O)Oc1ccc2c(c1)[nH]c1c3ccc(OC(C)=O)cc3oc(=O)c21" , what is its reported GI50?
Reply | 48 µM (inactive)

###

Listed molecules paired with reported GI50
# System: SF-539
# Method Summary: NCI tumour cell line growth inhibition, 48 h
Calls of active or inactive are those of the source. No stated cut-off is given here; in the data, active = GI50 up to about 1.1 µM and inactive = higher. Numbered stars: 1 amine (or outer) side, 2 acyl side, 3 side chain; on linkers, the order of the positions; unused ones are H or OH. Square brackets hold non-standard residues; d marks the D form. Peptide text beside a SMILES is read from it. X55 = CC[C@H](C)[C@H](OC(=O)[C@@H](C)[C@@H](CC)N[*:1])C(=O)[*:2]; X31 = C[C@H](N[*:1])C(=O)C(C)(C)C(=O)[*:2]; NMeY = CN[C@@H](Cc1ccc(O)cc1)C(=O)O; NMeL = CN[C@@H](CC(C)C)C(=O)O; NMeV = CN[C@H](C(=O)O)C(C)C

Molecule	Reported Measurement
COc1cc(COC(=O)N2CCCCC2C(=O)O)c([N+](=O)[O-])cc1OC (stereo not drawn)	> 100 µM (inactive)
C=C1CN(Cc2ccccc2)[C@@H]2CCCCC[C@H](C#N)[C@H]12	> 100 µM (inactive)

Below: the item to evaluate.
Ask | # query: GI50 | item CC[C@H](C)[C@@H]1OC(=O)[C@@H](C)[C@@H](CC)NC(=O)[C@H](C)NC(=O)C(C)(C)C(=O)[C@H](C)NC(=O)[C@H](Cc2ccc(OC)cc2)N(C)C(=O)[C@H](C(C)C)N(C)C(=O)CNC(=O)[C@H](CC(C)C)N(C)C(=O)CNC1=O [DOLASTATIN 11] (cyclo(A[X55]G[NMeL]G[NMeV][NMeY](Me)[X31])) | system: SF-539
Reply | 0.0122 µM (active)

###

# Tested on: M14
# Method Summary: NCI tumour cell line growth inhibition, 48 h
Activity calls are given as the source filed them. No stated cut-off is given here; in the data, active = GI50 up to about 1.1 µM and inactive = higher.
Listed compounds paired with reported GI50

Reference set, count: 2
Compound	GI50
O=c1[nH][nH]c(=O)c2c1ccc1oc3ccccc3c12	> 100 µM (inactive)
COc1ccc(N2CCOCC2)cc1	> 100 µM (inactive)

Ask | For Cc1ccc([N+](=O)[O-])cc1S(=O)(=O)Nc1ccc(C2=NNC(c3ccccc3)C2)cc1 (stereo unspecified) , what is its reported GI50?
Reply | 21.4 µM (inactive)

Ask | For "COC1(OC)CCc2c(sc3ncnc(Nc4cccc(Br)c4)c23)C1" , what is its reported GI50?
Reply | 44.4 µM (inactive)

Ask | For COc1ccc2c3c1C(=O)CCCC3CO2 (stereo unspecified) , what is its reported GI50?
Reply | > 100 µM (inactive)

Ask | For "CCOC(=O)C(=O)/C(=C\NC(=S)Nc1ccccc1Cl)C(=O)OCC" , what is its reported GI50?
Reply | > 100 µM (inactive)
